target: recombinant CpLDH protein (Cryptosporidium parvum, UniProt Q9GT92, F198L/K295E/R251K)
Label rule met for high-side MEAN CpLDH INHIBITION (%) (at or above -20%) and rule not met for low-side MEAN CpLDH INHIBITION (%) (below it).

O=C1CCC(c2ccccc2)=NN1c1nc2ccccc2s1 :: rule not met
Nc1ccc2c(c1)S(=O)(=O)c1cc(N)ccc1-2 :: rule not met

[in] Entry `COc1ccccc1/C=C1\Sc2scc(-c3cccc([N+](=O)[O-])c3)[n+]2C1=O.[Cl-]` : is its MEAN CpLDH INHIBITION (%) no less than -20%?
[out] rule met

[in] Entry `Oc1cc2c3c(c1)c1cc4c(cc1c[n+]3CC2)OCO4.[Cl-]` : is its MEAN CpLDH INHIBITION (%) no less than -20%?
[out] rule met

[in] Entry `NC1=NCN([C@@H]2O[C@H](CO)[C@@H](O)[C@H]2O)C(=O)N1` : is its MEAN CpLDH INHIBITION (%) no less than -20%?
[out] rule met

[in] Entry CCN(CC)CCCC(C)NC(=O)c1ccc2c(c1)C(=O)c1ccccc1C2=O.Cl (stereo not drawn) : is its MEAN CpLDH INHIBITION (%) no less than -20%?
[out] rule not met

[in] Entry `N#CC(=S)Nc1ccc(Cl)c(Cl)c1` : is its MEAN CpLDH INHIBITION (%) no less than -20%?
[out] rule not met

[in] Entry `Cc1nc2c(o1)C(=O)c1ccccc1C2=Nc1ccccc1` : is its MEAN CpLDH INHIBITION (%) no less than -20%?
[out] rule not met

[in] Entry `CC(=O)Oc1ccc(C(c2ccc(OC(C)=O)cc2)c2ccccn2)cc1` : is its MEAN CpLDH INHIBITION (%) no less than -20%?
[out] rule met

---

// MEAN CpLDH INHIBITION (%) collected for recombinant CpLDH protein (Cryptosporidium parvum, UniProt Q9GT92, F198L/K295E/R251K)
Positions of bridges follow the written chain, without caps; N, C: chain ends. Non-standard residues stand in square brackets, D forms with d. Residues, ends and D or L forms follow the SMILES beside them. ξ: configuration not given here. *: point of attachment. ξNMePhe(4-NMe2) = CNC(Cc1ccc(N(C)C)cc1)C(=O)O; Picolinoyl(3-OH) = O=C(c1ncccc1O)*; ξPip(4-oxo) = O=C1CCNC(C(=O)O)C1; Phg = N[CH](C(=O)O)c1ccccc1; Abu = CC[CH](N)C(=O)O
Express the result in % but write the number alone.

Consider the worked cases shown below.
CC1=C\C(O)CC(=O)Cc2nc(co2)C(=O)N2CCC=C2C(=O)OC(C(C)C)C(C)/C=C/C(=O)NC/C=C\1.CCC1NC(=O)C(NC(=O)c2ncccc2O)C(C)OC(=O)C(c2ccccc2)NC(=O)C2CC(=O)CCN2C(=O)C(Cc2ccc(N(C)C)cc2)N(C)C(=O)C2CCCN2C1=O (stereo not drawn) [NSC125176] ({Picolinoyl(3-OH)}-T[Abu]P[ξNMePhe(4-NMe2)][ξPip(4-oxo)][Phg]; ester 1-C; configuration not given here) :: -0.47
[Mo] [NSC622124] :: 0.01
O=C1Oc2ccccc2C1C/C(=N\Nc1ccccc1)c1ccccc1O (stereo not drawn) :: -29.39
CCN(CC)CCCNc1ncc(C)c2[nH]c3ccncc3c12.O=C(O)/C=C\C(=O)O :: -26.39
N#CC(NCc1cccc(CNC(C#N)c2ccccc2)c1)c1ccccc1 (stereo not drawn) :: -12.34

Shift focus to the following entry.
[in] For the compound `CC(C)C1=CC2=CC[C@@H]3[C@](C)(CCC[C@@]3(C)C(=O)O)[C@H]2CC1` , what MEAN CpLDH INHIBITION (%) is on record?
[out] -16.60

Origin of the recorded values: paper PMC6687188
